From: paper PMC7986984

assay type: in vivo, mice; details: Plasma; Chronic Synbiotic; over 24 h
propertyName: AUC (ng·h/mL)
Write it as a number; the unit ng·h/mL goes unstated.

>>> quantitativereadout("COc1cc(CCC(=O)O)ccc1O [DHFA, Dihyroferulic acid]")
30.2

-- ask Name the recorded AUC for Oc1ccc(/C=C/c2cc(O)cc(O)c2)cc1 [RSV, t-Resveratrol (−)] .
-- reply 33150.7

-- ask Now this one: Oc1cc(O)c2c(c1)OC(c1ccc(O)c(O)c1)C(O)C2 (centres unmarked) [C, Catechin]
-- reply 25.2

-- ask Now this one: COc1cc(/C=C/C(=O)O)ccc1O [FA, Ferulic acid]
-- reply 138.8

----------
type: in vivo, mice; conditions: male, mouse, brain, po, Cmax, Chronic Synbiotic, n = 6 +/- SEM
Label true when Cmax is at or above 100 ng/mL; otherwise label false.

>>> cat("O=C(O)c1ccc(O)c(O)c1 [3,4-diHBA, 3,4-Dihydroxybenzoic acid]")
"false"

-- ask Exam item: decide whether the reported Cmax for O=C(O)Cc1ccccc1 [PA, Phenylacetic acid] is at least 100 ng/mL.
-- reply true

-- ask Now this one: O=C(O)Cc1cccc(O)c1 [3-HPAA, 3-Hydroxyphenylacetic acid]
-- reply false

-- ask Now this one: COc1cc(CC(=O)O)ccc1O [HVA, Homovanillic acid]
-- reply true

-- ask Now this one: O=c1c(O)c(-c2ccc(O)cc2)oc2cc(O)cc(O)c12 [KAMF, Kaempferol]
-- reply false

-- ask Now this one: O=C(O)Cc1ccc(O)cc1 [4-HPAA, 4-Hydroxyphenylacetic acid]
-- reply true

----------
Molecular target: UniProtKB P35869
Sequence (P35869 11-848): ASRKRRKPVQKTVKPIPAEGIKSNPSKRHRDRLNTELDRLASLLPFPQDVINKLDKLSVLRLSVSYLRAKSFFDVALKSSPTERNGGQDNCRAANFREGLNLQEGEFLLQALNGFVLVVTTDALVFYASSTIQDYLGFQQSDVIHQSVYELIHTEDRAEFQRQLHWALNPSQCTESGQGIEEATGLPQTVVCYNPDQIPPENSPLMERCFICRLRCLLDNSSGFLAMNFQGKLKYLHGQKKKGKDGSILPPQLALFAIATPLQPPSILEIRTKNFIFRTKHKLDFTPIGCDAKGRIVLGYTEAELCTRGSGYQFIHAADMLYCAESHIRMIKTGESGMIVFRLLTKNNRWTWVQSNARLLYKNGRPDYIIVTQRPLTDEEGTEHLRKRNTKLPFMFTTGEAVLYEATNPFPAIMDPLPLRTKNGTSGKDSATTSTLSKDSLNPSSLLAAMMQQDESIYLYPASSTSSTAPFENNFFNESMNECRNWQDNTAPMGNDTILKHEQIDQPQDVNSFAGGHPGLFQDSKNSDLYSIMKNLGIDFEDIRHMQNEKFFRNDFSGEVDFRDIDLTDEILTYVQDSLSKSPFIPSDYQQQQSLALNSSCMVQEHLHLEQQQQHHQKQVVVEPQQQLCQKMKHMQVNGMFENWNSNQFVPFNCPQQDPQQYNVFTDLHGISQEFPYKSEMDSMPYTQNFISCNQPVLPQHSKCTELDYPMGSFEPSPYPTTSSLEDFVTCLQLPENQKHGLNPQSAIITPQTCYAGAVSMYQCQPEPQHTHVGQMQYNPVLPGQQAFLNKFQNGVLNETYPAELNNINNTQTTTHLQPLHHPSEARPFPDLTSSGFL
Format: cell-based
Settings: LPS-challenged coculture with AHR antagonist TMF
propertyName: dependence of the beneficial / anti-inflammatory activity on AHR signaling

>>> result("O=C(O)/C=C/c1ccc(O)c(O)c1")
"abrogated by TMF"
>>> result("O=C(O)CCc1ccc(O)cc1 [4-HPPA, 3-(4-Hydroxyphenyl)propionic acid]")
"abrogated by TMF"
>>> result("O=C(O)Cc1ccc(O)cc1 [4-HPAA, 4-Hydroxyphenylacetic acid]")
"abrogated by TMF"

----------
format: in vivo, mice; conditions: male, mouse, brain, po, AUC, Chronic BDPP, over 24 h
Binary label based on AUC with cut-off 2000 ng·h/mL: below gives yes, not below gives no.

Here are 5 molecules together with their reported answers.
>>> cat("COc1cc(CC(=O)O)ccc1O")
"no"
>>> cat("O=C(O)c1ccc(O)cc1 [4-HBA, 4-Hydroxybenzoic acid]")
"yes"
>>> cat("O=c1c(O)c(-c2cc(O)c(O)c(O)c2)oc2cc(O)cc(O)c12")
"yes"
>>> cat("O=C(O)Cc1ccc(O)c(O)c1 [3,4-diHPAA, 3,4-Dihydroxyphenylacetic acid]")
"no"
>>> cat("O=C(O)c1cc(O)c(O)c(O)c1")
"no"

Here is another molecule to look at.
-- ask AUC under 2000 ng·h/mL? Item: "O=C(O)CNC(=O)c1ccccc1"
-- reply yes

----------
assay type: in vivo, mice; details: male, mouse, brain, po, AUC, Chronic Synbiotic, over 24 h
Examples of compounds with documented AUC follow.
Write it as a number; the unit µg·h/mL goes unstated.

>>> quantitativereadout("O=c1c(O)c(-c2ccc(O)cc2)oc2cc(O)cc(O)c12")
0.288
>>> quantitativereadout("O=C(O)Cc1ccc(O)cc1 [4-HPAA, 4-Hydroxyphenylacetic acid]")
1.65
>>> quantitativereadout("O=C(O)c1ccc(O)c(O)c1 [3,4-diHBA, 3,4-Dihydroxybenzoic acid]")
0.291
>>> quantitativereadout("O=C(O)Cc1ccccc1")
14500
>>> quantitativereadout("COc1cc(-c2oc3cc(O)cc(O)c3c(=O)c2O)ccc1O")
0.103

-- ask Name the recorded AUC for O=C(O)Cc1cccc(O)c1 [3-HPAA, 3-Hydroxyphenylacetic acid] .
-- reply 0.0412

-- ask Now this one: O=C(O)Cc1ccc(O)c(O)c1 [3,4-diHPAA, 3,4-Dihydroxyphenylacetic acid]
-- reply 2.12

----------
assay type: in vivo, mice; conditions: male, mouse, brain, po, Tmax, Chronic BDPP
Examples of molecules with documented Tmax follow.
Write it as a number; the unit min goes unstated.

Worked examples, 4 molecules total:
>>> quantitativereadout("O=C(O)c1cccc(O)c1 [3-HBA, 3-Hydroxybenzoic acid]")
30
>>> quantitativereadout("O=C(O)Cc1ccc(O)c(O)c1 [3,4-diHPAA, 3,4-Dihydroxyphenylacetic acid]")
60
>>> quantitativereadout("O=C(O)c1cc(O)c(O)c(O)c1 [GA, Gallic acid]")
18
>>> quantitativereadout("O=C(O)Cc1cccc(O)c1 [3-HPAA, 3-Hydroxyphenylacetic acid]")
30

Now, please, on to the next molecule.
-- ask Name the recorded Tmax for O=C(O)c1ccc(O)cc1 [4-HBA, 4-Hydroxybenzoic acid] .
-- reply 0

----------
format: in vivo, mice; settings: male, mouse, plasma, po, Tmax, Chronic BDPP
propertyName: Tmax (min)
Write it as a number; the unit min goes unstated.

>>> quantitativereadout("COc1cc(-c2oc3cc(O)cc(O)c3c(=O)c2O)ccc1O [3′-MeQUER, Isorhamnetin]")
15

-- ask Name the recorded Tmax for Oc1cc(O)c2c(c1)O[C@H](c1ccc(O)c(O)c1)[C@H](O)C2 [EC, Epicatechin] .
-- reply 18

-- ask Now this one: O=C(O)CCc1cccc(O)c1 [3-HPPA, 3-(3-Hydroxyphenyl)propionic acid]
-- reply 60

----------
Examples of compounds with documented Tmax follow.
format: in vivo, mice; conditions: male, mouse, brain, po, Tmax, Chronic BDPP
Your answer should be a number followed by the unit of measure.

Worked examples, 2 compounds total:
>>> result("O=C(O)CNC(=O)c1ccccc1")
"1 h"
>>> result("O=c1c(O)c(-c2cc(O)c(O)c(O)c2)oc2cc(O)cc(O)c12")
"0.3 h"

-- ask Name the recorded Tmax for O=C(O)Cc1ccc(O)cc1 [4-HPAA, 4-Hydroxyphenylacetic acid] .
-- reply 1 h

-- ask Now this one: "COc1c(O)cc(C(=O)O)cc1O"
-- reply 0.5 h

-- ask Now this one: "COc1cc(CC(=O)O)ccc1O"
-- reply 1 h

----------
system: Kynurenine; assay: Kynurenine production; assay type: cell-based, human; conditions: LPS +, TMF +; metabolites 250 ng/mL
Examples of compounds with documented Kynurenine (% Change) follow.
Write it as a number; the unit % Change goes unstated.

>>> quantitativereadout("O=c1c(O)c(-c2ccc(O)cc2)oc2cc(O)cc(O)c12")
131.7
>>> quantitativereadout("O=C(O)/C=C/c1ccc(O)c(O)c1")
144.1
>>> quantitativereadout("COc1cc(-c2oc3cc(O)cc(O)c3c(=O)c2O)ccc1O")
129.9
>>> quantitativereadout("COc1cc(O)c2c(=O)c(O)c(-c3ccc(O)c(O)c3)oc2c1")
132.0
>>> quantitativereadout("O=C(O)CCc1ccc(O)cc1 [4-HPPA, 3-(4-Hydroxyphenyl)propionic acid]")
134.3

Now, please, on to the next compound.
-- ask Name the recorded Kynurenine (% Change) for O=C(O)Cc1ccc(O)cc1 [4-HPAA, 4-Hydroxyphenylacetic acid] .
-- reply 120.7

----------
format: in vivo, mice; settings: male, mouse, brain, po, AUC, Chronic Synbiotic, over 24 h
Examples of compounds with documented AUC follow.
Write it as a number; the unit ng·h/mL goes unstated.

>>> quantitativereadout("O=C(O)CNC(=O)c1ccccc1 [HA, Hippuric acid]")
1810
>>> quantitativereadout("COc1cc(O)c2c(=O)c(O)c(-c3ccc(O)c(O)c3)oc2c1 [7′-MeQUER, Rhamnetin]")
1.14
>>> quantitativereadout("COc1c(O)cc(C(=O)O)cc1O [4-MeGA, 4-O-Methylgallic acid]")
6.8
>>> quantitativereadout("O=C(O)c1cc(O)c(O)c(O)c1 [GA, Gallic acid]")
4760
>>> quantitativereadout("O=C(O)c1cccc(O)c1 [3-HBA, 3-Hydroxybenzoic acid]")
146
>>> quantitativereadout("COc1cc(C(=O)O)ccc1O [VA, Vanillic acid]")
205
>>> quantitativereadout("O=c1c(O)c(-c2ccc(O)c(O)c2)oc2cc(O)cc(O)c12 [QUER, Quercetin]")
544
>>> quantitativereadout("COc1cc(CC(=O)O)ccc1O [HVA, Homovanillic acid]")
6220

-- ask Name the recorded AUC for O=C(O)c1ccc(O)cc1 [4-HBA, 4-Hydroxybenzoic acid] .
-- reply 6680

-- ask Now this one: O=c1c(O)c(-c2cc(O)c(O)c(O)c2)oc2cc(O)cc(O)c12 [MYR, Myricetin]
-- reply 578
